Cited source for all entries: paper PMC2665295

assayed target: CaMN composed of amino acids 1–75 (UniProt P0DP23 2-76)
procedure details: ITC
observable: Kd (nM)
Answers are plain numbers, in nM.

// Kd value for Ac-KKFNARRKLKGAILTTMLATRN-NH2 [CaMKII(291–312) peptide] : 500
